Give measured Plant response rating, Foxtail, Giant for each item. Keep answers brief.
- Test system: giant foxtail
- TEST_SUMMARY: Test C pre-/postemergence herbicide test
- Format: in vivo, Setaria faberi
- CONDITIONS: 250 g ai/ha; scale 0 to 100 (0 no effect, 100 complete control); visual, 12 to 14 days; preemergence

List the reported Plant response rating, Foxtail, Giant of each molecule below.
1. CCCCOc1cccc(NC(=O)c2cc(C(C)(C)C)nn2CC)c1
2. CCNC(=O)c1cccc(NC(=O)c2cc(C(C)(C)C)nn2CC(F)(F)F)c1
3. CCN1CCc2c(NC(=O)c3cc(C(C)(C)C)nn3CC)cccc2C1=O
4. CCn1nc(C(C)(C)C)cc1C(=O)Nc1cccc(C(=O)NCC(C)C)c1
5. C#CCNC(=O)c1cccc(NC(=O)c2cc(C(C)(C)C)nn2CC)n1

1: 60; 2: 70; 3: 10; 4: 40; 5: 30
